Sourced from PubChem BioAssay AID1063

test: Leishmania major promastigote growth inhibition, primary screen (AID 1063); conditions: Leishmania major promastigotes, resazurin fluorescence viability; at 10 µM; hits give high values;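 note: promastigotes grown with compound for 44 hours at 28 °C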
Among all 200,000 compounds or so, about 18,000 (9%) were called active. The full list was thinned out, with actives kept by preference.
result type: inhibition (%)
# number only, unit % dropped from output

Example cases with answers are listed next.
Requested field: inhibition. Item: CCc1nnc(NS(=O)(=O)c2ccc(N=Cc3c(O)n(-c4ccccc4)c(=O)[nH]c3=O)cc2)s1 -1.81

Which value of inhibition has been reported for N#CC1=C(N)Oc2c(c(=O)oc3ccccc23)C1c1ccccc1OC(=O)c1cccs1 (stereo unspecified) in the records? 8.6

inhibition for CCN(CC)P(=O)(Oc1cccc(C)c1)N(CC)CC ? 22.5

---
Endpoint output: inhibition of COc1ccc(-c2nn(CCC#N)cc2C(=O)O)cc1 . Value? -0.84

Need inhibition, item c1cc2c(cc1CCNC1CCCCCC1)OCO2 95.2

Item CCNc1nc2[nH]c(=O)c3c(c2s1)OC(N)=C(C#N)C3c1cccs1 (stereo unspecified) has what recorded inhibition? 56.6

Returns the measured inhibition for the input compound. Input: O=c1c2ccccc2nc(-c2ccccc2)n1-c1ccccn1 -4.66

Form field: reported inhibition of COc1ccc(NC(=O)N2CCC3(CC2)OCCO3)c(OC)c1 -0.24

For Nc1ccc(C(=O)N/N=C2/CN3CCC2CC3)cc1 , what is its reported inhibition? -7.96

Could you tell me which inhibition is on file for Cc1nc2ccc(N3CCN(C)CC3)cc2nc1C ? 3.66

Could you share which inhibition value was measured for COc1cccc(N2C(=O)NC(=O)/C(=C\c3ccc([N+](=O)[O-])s3)C2=O)c1 ? 93.6

Which inhibition reading was recorded for the compound CN(C)/C=C(\C=[N+](C)C)c1[nH]ncc1[N+](=O)[O-] ? -3.98

Entry under review: CCN(CC)c1ccc([N+](=O)[O-])c2cccnc12 . Reported inhibition? 9.8

Need inhibition, item O=C(O)CCn1cc(C=C2C(=O)NC(=S)NC2=O)c(-c2cccc(Br)c2)n1 -7.24

Fill in the blank: the reported inhibition of O=c1[nH]c(=S)n(C2CC2)c(O)c1/C=N/N1CCOCC1 is ____. -5.26

Using the record for O=C(COc1ccc2ccccc2c1)N1CCN(Cc2ccncc2)CC1 , report its inhibition. 44.3

Bench note: what inhibition did COC(=O)C(O)(c1ccc(NC(=O)c2ccco2)c(OC)c1)C(F)(F)F (stereo unspecified) show? -2.15

Which inhibition is reported for this compound? CC(C)(C)[C@]1(O)C[C@@H]2OC(=O)C[C@@]23C(=O)O[C@@H]2OC(=O)[C@H](O)[C@]213 -6.51

I am curious: what inhibition value has been reported for Cc1ccc(Cn2nnnc2CN2CCC(n3nnc4ccccc43)CC2)cc1 ? 4.28

Could you share which inhibition value was measured for CC(C)Oc1cccc(C(=O)C2CCCN(C3CCOCC3)C2)c1 (stereo unspecified) ? 93.2

Which measured inhibition value corresponds to CC(c1ccccc1)(c1ccccc1)c1ccncc1 ? 19.2

---

experiment: Leishmania major promastigote growth inhibition, primary screen (AID 1063); conditions: Leishmania major promastigotes, resazurin fluorescence viability; at 10 µM;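 note: promastigotes grown with compound for 44 hours at 28 °C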
About 18,000 (9%) of roughly 200,000 compounds were called active. Cut-off read from the data, not from the text of the source: active = inhibition above about 50%; inactive = the rest. This excerpt belongs to a sample that is enriched for actives.
Classes to choose from: TRUE (active), FALSE (inactive)

Consider the worked cases shown below.
How was CC1CCCCN1Cc1cccnc1 (stereo not given) classified in this test? FALSE

Each compound tested received a call. Report the one for CC(C(=O)Nc1ccc(Cl)cc1Cl)N1CC=C(c2ccccc2)CC1 (stereo not given) . FALSE

Field: outcome | Entry: OC1/C(=C/c2ccc(C(F)(F)F)cc2)N2CCC1CC2 (stereo not given) FALSE

---
Status in this test for COP(=O)(NS(=O)(=O)c1ccccc1)OC ? FALSE
